- method-notes: chemical genetic growth profiling, strain panel (AID 1159580);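 also: tested at 20 µM; growth read once vehicle control cultures reached saturation at 30 °C; 1 = growth at the plate median or of vehicle wells; lower values mean less growth of the strain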
- assay-conditions: S. cerevisiae deletion strains, growth OD, locus YJL157C, strain FAR1, stronger effect = lower value
Screen size: about 5,500 compounds; about 2,000 (36%) were called active. About 18% were inconclusive and are not listed. Some of the results follow.
Record form. Attribute: normalized growth. Fill in for each entry.
Just the number.

Determine from records and report normalized growth for N/C(CSc1ccc(Cl)cc1)=N/OC(=O)c1ccc(C(F)(F)F)cc1
0.826

Consider the compound Cc1cc(C(=O)N(c2ccccc2)C(C)C2CC2)c(Cl)cc1Cl (stereo unspecified) and give its recorded normalized growth.
0.957

Assign normalized growth to the following record: O=C(NNC(=O)c1csc(-c2cccs2)n1)c1ccc(C(F)(F)F)cc1
0.612

Answer with the recorded normalized growth for the compound listed here: CC(O)(CNCc1ccc(Cl)cc1)CSc1ccccc1Cl (stereo unspecified)
0.973

Provide measured normalized growth value, entry: Cc1cc(C(=O)O/N=C(/N)CSc2ncccc2C(F)(F)F)no1
1.01

Answer with reported normalized growth of N#CCCCCOc1ccc2c(=O)cc(-c3ccccc3)oc2c1
0.971
